- TEST_DETAILS: Prediction of pharmacokinetics of 2.5 mg lemborexant in combination with agent moderately or strongly inhibiting CYP3A (Test Example 1-3, dose proportionality)
- Assay type: in vivo, human
- MEASUREMENT_PARAMETERS: both sexes, human, plasma, oral, 2.5 mg lemborexant; lower to upper limit of 95% CI in combination with fluconazole; read-out: mean AUC (0-inf) achieved
READOUT_KIND: AUC(0-inf)

Requested field: AUC(0-inf). Item: Cc1ncc(OC[C@@]2(c3cccc(F)c3)C[C@H]2C(=O)Nc2ccc(F)cn2)c(C)n1 [lemborexant]
0.308 to 0.445 µg·h/mL

* * *

- TEST_DETAILS: Single dose administration test of lemborexant in healthy adults (Test Example 3)
- Type: in vivo, human
- MEASUREMENT_PARAMETERS: human, plasma, oral, 10 mg, single administration of 10 mg lemborexant, healthy adults; read-out: AUC(0-inf), Geometric mean
READOUT_KIND: AUC(0-inf)

Requested field: AUC(0-inf). Item: Cc1ncc(OC[C@@]2(c3cccc(F)c3)C[C@H]2C(=O)Nc2ccc(F)cn2)c(C)n1 [lemborexant]
299 ng·h/mL

* * *

- TEST_DETAILS: Single dose administration test of lemborexant in healthy adults (Test Example 3)
- Format: in vivo, human
- MEASUREMENT_PARAMETERS: human, plasma, oral, 10 mg, single administration of 10 mg lemborexant, healthy adults; read-out: Cmax, Geometric mean
READOUT_KIND: Cmax (ng/mL)
Number only, in ng/mL; omit the unit.

Requested field: Cmax. Item: Cc1ncc(OC[C@@]2(c3cccc(F)c3)C[C@H]2C(=O)Nc2ccc(F)cn2)c(C)n1 [lemborexant]
32

* * *

- TEST_DETAILS: Prediction of pharmacokinetics of 2.5 mg lemborexant in combination with agent moderately or strongly inhibiting CYP3A (Test Example 1-3, dose proportionality)
- Format: in vivo, human
- MEASUREMENT_PARAMETERS: both sexes, human, plasma, oral, 2.5 mg lemborexant; lower to upper limit of 95% CI in combination with fluconazole; read-out: mean Cmax achieved
READOUT_KIND: Cmax

Requested field: Cmax. Item: Cc1ncc(OC[C@@]2(c3cccc(F)c3)C[C@H]2C(=O)Nc2ccc(F)cn2)c(C)n1 [lemborexant]
18.1 to 26.9 ng/mL

* * *

- TEST_DETAILS: Single dose administration test of lemborexant in healthy adults (Test Example 3)
- Assay type: in vivo, human
- MEASUREMENT_PARAMETERS: human, plasma, oral, 10 mg, single administration of 10 mg lemborexant, healthy adults; read-out: AUC(0-inf), Minimum value
READOUT_KIND: AUC(0-inf) (ng·h/mL)
Number only, in ng·h/mL; omit the unit.

Requested field: AUC(0-inf). Item: `Cc1ncc(OC[C@@]2(c3cccc(F)c3)C[C@H]2C(=O)Nc2ccc(F)cn2)c(C)n1`
188

* * *

- TEST_DETAILS: Single dose administration test of lemborexant in healthy adults (Test Example 3)
- Format: in vivo, human
- MEASUREMENT_PARAMETERS: human, plasma, oral, 10 mg, single dose of 10 mg lemborexant; read-out: AUC (0-inf), lower limit value of the 95% confidence interval
READOUT_KIND: AUC(0-inf) (ng·h/mL)
Number only, in ng·h/mL; omit the unit.

Requested field: AUC(0-inf). Item: Cc1ncc(OC[C@@]2(c3cccc(F)c3)C[C@H]2C(=O)Nc2ccc(F)cn2)c(C)n1 [lemborexant]
216
